system: EKVX; test: NCI tumour cell line growth inhibition, 48 h
Active and inactive are the calls of the source. Cut-off read from the data, not from the text of the source: active = GI50 up to about 1.1 µM and inactive = higher.

# Compound, GI50
records = [
    ("Cc1ccc(-c2nc(C)c(C(=O)Nc3ccc(Cl)cc3)s2)cc1", "37.8 µM (inactive)"),
    ("CCC(=O)O[C@@H]1C2C(OC(C)=O)C34COC(C)([C@@H]3C3C(C[C@]3(C)OC(C)=O)[C@@H](OC(=O)c3ccccc3)C4=O)[C@H](OC(C)=O)[C@@]2(OC(C)=O)C[C@@H]1C (some centres undefined)", "87.1 µM (inactive)"),
    ("CC1(O)C=CC2CCC1C2O (centres undefined)", "> 100 µM (inactive)"),
    ("O=C1C(Cl)=C(Nc2ccc(S(=O)(=O)Nc3ccccn3)cc2)C(=O)c2ccccc21", "9.4 µM (inactive)"),
    ("CON(C)C(=O)CCCO", "> 100 µM (inactive)"),
    ("NC(=O)[N+](=CC(=S)Nc1ccccc1Cl)C(N)=O", "> 100 µM (inactive)"),
    ("CC1(C)OP(=O)(c2ccccc2)C=C1Br (centres undefined)", "> 100 µM (inactive)"),
    ("C=C1C(=O)O[C@@H]2C[C@@]3(C)CCCC(=C)[C@@H]3C[C@H]12.C=C1C(=O)O[C@@H]2C[C@@]3(C)CCC[C@H](C)C3=C[C@H]12", "4.78 µM (inactive)"),
    ("C=CCC1C(=O)CC2(C)C(CC=C)C(=O)CC12C (centres undefined)", "> 100 µM (inactive)"),
]

---

system: K562; assay: NCI tumour cell line growth inhibition, 48 h
Calls of active or inactive are those of the source. Cut-off read from the data, not from the text of the source: active = GI50 up to about 1.1 µM and inactive = higher.
Outcomes: active, inactive

# Compound, Target or system, Label
data = [
    ("COC(=O)C1OC(O[C@H]2CC[C@]3(C)[C@H]4CC=C5[C@@H]6CC(C)(C)CC[C@]6(C(=O)OC)[C@H](O)C[C@@]5(C)[C@]4(C)CC[C@H]3C2(C)C)C(O)C(O)C1O (stereo not given in full)", "K562", "inactive"),
    ("CCc1ccccc1NNc1cc(=O)[nH]c(=O)[nH]1", "K562", "inactive"),
    ("COc1ccc(S(=O)(=O)NC(CCC(=O)NN)C(=O)NN)cc1 (stereo not given)", "K562", "inactive"),
    ("COC(=O)c1cc2c(cc1O)[C@@H](NC(C)=O)CCc1cc(OC)c(OC)c(OC)c1-2", "K562", "active"),
    ("S=C1NNC(=S)NN1", "K562", "active"),
    ("O=c1nc(Oc2c(F)c(F)c(F)c(F)c2F)ccn1C1OC(CO)C(O)C1O (stereo not given)", "K562", "inactive"),
    ("Cc1cc(=O)nc(S(=O)(=O)NC(=O)Nc2cccc(Cl)c2)[nH]1", "K562", "inactive"),
    ("Cc1c(O)c(=O)ccn1C1OC(CO)C(O)C1O (stereo not given)", "K562", "inactive"),
    ("Cc1c2ccccc2c(=O)n2c(-c3ccccn3)cccc12", "K562", "inactive"),
    ("COc1ccc2c(CCNC(=O)/C=C/c3ccccc3)c(C(C)=O)[nH]c2c1[N+](=O)[O-]", "K562", "inactive"),
]

---

test system: IGROV-1; test: NCI tumour cell line growth inhibition, 48 h
Active and inactive are the calls of the source. No stated cut-off is given here; in the data, active = GI50 up to about 1.1 µM and inactive = higher.
Outcomes: active, inactive

# Molecule, Label
records = [
    ("C[C@]12CCC3[C@@H](CC[C@@H]4c5nonc5CC[C@]34C)C1CCC2=O (stereo partly drawn)", "inactive"),
    ("Nc1ncc(Br)c(NCC2(CO)CCC2)n1", "inactive"),
    ("C/C(=C\\c1csc(C)n1)[C@@H]1C[C@@H]2O[C@@H]2CCC[C@H](C)[C@H](O)[C@@H](C)C(=O)C(C)(C)[C@@H](O)CC(=O)O1 [EPOTHILONE A]", "active"),
    ("O=C1CC(=O)NC(NN2C(=O)/C(=C/c3ccccc3)N=C2c2ccccc2)=N1", "inactive"),
    ("CCOC(=O)/C(=N\\OC)C(O)C(F)(F)F (stereo not drawn)", "inactive"),
    ("Cc1ccc(C2C(Cl)C(=O)N2n2cnc3ccccc3c2=O)cc1 (stereo not drawn)", "inactive"),
    ("CC(=O)O[C@@H]1[C@H]2[C@@H](OC(=O)c3ccccc3)[C@@H](C)C[C@]2(O)[C@H](OC(C)=O)[C@@]2(C)[C@@H]3CC(C)(C)C(=O)[C@]3(OC(C)=O)C[C@@]12C", "inactive"),
    ("C=C1C(=O)O[C@@H]2C[C@@]3(C)CCCC(=C)[C@@H]3C[C@H]12.C=C1C(=O)O[C@@H]2C[C@@]3(C)CCC[C@H](C)C3=C[C@H]12", "inactive"),
    ("C/C(=N\\N=C(/S)N1CC2CCC(CC2)C1)c1ccncn1", "active"),
    ("C=CC1=CSNN1", "inactive"),
    ("CC(=O)/C(=C\\n1c(=S)[nH]c2ccc([N+](=O)[O-])cc21)C(=O)Nc1ccccc1C", "inactive"),
    ("O=C1OC(=O)C2C1C1C(c3ccccc3)=C(c3ccccc3)C2(O)C2C(=O)OC(=O)C12 (stereo not drawn)", "inactive"),
    ("O=C(OCCN=c1c2ccccc2ccc2ccccc12)c1ccccc1", "inactive"),
    ("O=C(O)c1cc2c3ccccc3nc-2c[nH]1", "inactive"),
    ("O=C(Nc1ccccc1)c1cccc([N+](=O)[O-])c1", "inactive"),
    ("CCOC(=O)CCc1cccc2c1oc1c(CCNC(=O)OCC3c4ccccc4-c4ccccc43)cccc12", "inactive"),
    ("S=c1[nH]c(=S)c2cc(Sc3ccc4[nH]c(=S)[nH]c(=S)c4c3)ccc2[nH]1", "inactive"),
    ("COc1cc2c(cc1OCCN1CCN(CCOc3cc4c(cc3OC)C(=O)N3CCC[C@H]3C=N4)CC1)N=C[C@@H]1CCCN1C2=O", "inactive"),
]
